meta.source: patent US11578084B2

# TARGET SYSTEM: human recombinant dopamine D2 receptor (Homo sapiens (Human))
# Sequence (P14416 whole entry): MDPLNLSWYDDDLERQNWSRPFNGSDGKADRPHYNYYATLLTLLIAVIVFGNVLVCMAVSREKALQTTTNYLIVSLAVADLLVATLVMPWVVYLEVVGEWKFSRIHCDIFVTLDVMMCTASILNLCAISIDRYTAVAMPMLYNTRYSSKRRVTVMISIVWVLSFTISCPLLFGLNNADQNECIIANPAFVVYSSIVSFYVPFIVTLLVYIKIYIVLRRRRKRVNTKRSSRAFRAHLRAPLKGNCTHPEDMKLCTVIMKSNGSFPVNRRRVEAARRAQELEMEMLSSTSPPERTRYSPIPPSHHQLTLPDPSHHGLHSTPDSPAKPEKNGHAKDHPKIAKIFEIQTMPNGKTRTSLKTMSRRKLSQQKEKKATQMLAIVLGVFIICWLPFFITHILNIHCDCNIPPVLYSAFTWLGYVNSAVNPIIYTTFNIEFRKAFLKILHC
# ASSAY DETAILS: Test of binding inhibition for dopamine D2 receptor ([3H]-Methylspiperone SPA)
# TEST SETTINGS: Jump-In HEK cell membranes, 1.2 nM [3H]-Methylspiperone, 120 min at 25° C.; read-out: hD2_Ki
Ki less than 0.7 µM is class 1; Ki greater than or equal to 0.7 µM is class 0.

Use the examples below as a reference point.
{"columns": ["SAMPLE SMILES", "TARGET SYSTEM", "CLASS NAME"],
 "data": [
  ["O=C(N[C@H]1CC[C@H](CCN2CCc3ccc(OCC(F)F)nc3CC2)CC1)c1cccnc1C(F)F", "human recombinant dopamine D2 receptor (Homo sapiens (Human))", "class 1"],
  ["Cn1ncc(CC(=O)N[C@H]2CC[C@](F)(CCN3CCc4ccc(CCC(F)(F)F)nc4CC3)CC2)n1", "human recombinant dopamine D2 receptor (Homo sapiens (Human))", "class 0"]
]}

Given CN1Cc2c(C(=O)N[C@H]3CC[C@](F)(CCN4CCc5nc(OCC(F)F)sc5CC4)CC3)cccc2C1=O , is recorded Ki strictly lower than 0.7 µM?
class 0

Given the entry Cn1ncc(CC(=O)N[C@H]2CC[C@](F)(CCN3CCc4nc(OCC(F)(F)C(F)F)sc4CC3)CC2)n1 , would its reported Ki be below 0.7 µM?
class 0

Confirm or reject: Ki of Cc1ncccc1C(=O)N[C@H]1CC[C@H](CCN2CCc3nc(OCC(C)(F)F)sc3CC2)CC1 lies strictly below 0.7 µM
class 1

Say whether its Ki is strictly beneath 0.7 µM. Entry: Cc1ncc(CC(=O)N[C@H]2CC[C@H](CCN3CCc4ccc(O[C@H](C)C(F)(F)F)nc4CC3)CC2)cn1
class 1
